// data source = patent US20190322697A1

target: AQ STING (G230A-R293Q) (Homo sapiens, UniProt Q86WV6, G230A/H232R/R293Q); construct: truncated human WT STING or AQ STING (amino acid residues 140-343); 8xHis (N, cleaved yes); SUMO (N, cleaved yes); made in house; host or cells: E. coli Rosetta-gami B (DE3); assay: Differential Scanning Fluorimetry with AQ STING; type: binding; conditions: thermal shift, truncated human AQ STING 0.1 mg/ml, 150 μM CDN
Sequence (Q86WV6 140-343 G230A/H232R/R293Q): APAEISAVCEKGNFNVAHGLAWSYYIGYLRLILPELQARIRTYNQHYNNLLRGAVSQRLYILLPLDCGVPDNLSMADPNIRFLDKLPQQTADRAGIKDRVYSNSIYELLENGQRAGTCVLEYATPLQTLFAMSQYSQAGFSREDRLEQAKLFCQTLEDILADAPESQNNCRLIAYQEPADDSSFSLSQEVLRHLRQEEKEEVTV
Labelling field: enter TRUE if recorded DSF ΔTm AQ STING is less than 20 °C. Enter FALSE if it equals or exceeds that cut-off.

Please review the entries below; each comes with its answer.
Nc1ncnc2c1ncn2[C@@H]1O[C@@H]2COP(=O)(O)O[C@@H]3[C@H](F)[C@@H](COP(=O)(O)CO[C@@H]1[C@@H]2F)O[C@H]3n1cnc2c(N)ncnc21    TRUE
Nc1nc2c(ncn2[C@@H]2O[C@@H]3COP(=O)(O)O[C@@H]4[C@H](O)[C@@H](COP(=O)(O)O[C@@H]2[C@@H]3O)O[C@H]4n2cnc3c(N)ncnc32)c(=O)[nH]1 [2′2′-cGAMP, reference compound]    TRUE
Nc1ncnc2c1ncn2[C@@H]1O[C@@H]2COP(=O)(O)CO[C@@H]3[C@@H](O)[C@@H](COP(=O)(O)CO[C@@H]1[C@H]2O)O[C@H]3n1cnc2c(N)ncnc21    TRUE
Nc1nc2c(ncn2[C@@H]2O[C@@H]3COP(=O)(O)O[C@@H]4[C@H](O)[C@@H](COP(=O)(O)CO[C@@H]2[C@@H]3O)O[C@H]4n2cnc3c(N)ncnc32)c(=O)[nH]1    TRUE

Please examine the following record next.
Query: Given the entry Nc1nc2c(ncn2[C@@H]2O[C@@H]3COP(=O)(O)CO[C@@H]4[C@H](F)[C@@H](COP(=O)(O)O[C@@H]2[C@@H]3F)O[C@H]4n2cnc3c(N)ncnc32)c(=O)[nH]1 , would its reported DSF ΔTm AQ STING be below 20 °C?
Response: FALSE

---

Each record here notes measured DSF ΔTm AQ STING.
Target: AQ STING (G230A-R293Q) (Homo sapiens, UniProt Q86WV6, G230A/H232R/R293Q)
Construct: truncated human WT STING or AQ STING (amino acid residues 140-343); 8xHis (N, cleaved yes); SUMO (N, cleaved yes); made in house; host or cells: E. coli Rosetta-gami B (DE3)
Test: Differential Scanning Fluorimetry with AQ STING
Format: binding
Settings: thermal shift, truncated human AQ STING 0.1 mg/ml, 150 μM CDN
Text: Purified PCR products were cleaved with restriction enzymes BamHI (cat. # R0136S, NEB, Ipswich, USA) and NotI (cat. # R0189S, NEB, Ipswich, USA) and cloned into the pSUMO vector linearized with the identical enzymes. […]
Give me the value, and tack the unit on after it.

Nc1nc2c(ncn2[C@@H]2O[C@@H]3COP(=O)(O)O[C@H]4[C@@H](O)[C@H](n5cnc6c(=O)[nH]c(N)nc65)O[C@@H]4COP(=O)(O)O[C@H]3[C@H]2O)c(=O)[nH]1 [3′3′-c-di-GMP, reference compound]    7.7 °C

Attention now turns to another entry.
Query: Given the molecule Nc1ncnc2c1ncn2[C@@H]1O[C@@H]2COP(=O)(O)O[C@H]3[C@@H](O)[C@H](n4cnc5c(N)ncnc54)O[C@@H]3COP(=O)(O)O[C@H]2[C@H]1O [3′3′-c-di-AMP, reference compound] , what is its reported DSF ΔTm AQ STING?
Response: 9.3 °C
